- tested.system: cynomolgus PAI-1 (cynomolgus (Macaca fascicularis), UniProt P05121 24-402 (human entry))
- assay.info: cell-based or functional assay
measured.property: Cyno PAI-1 neutralization IC50 (nM)
Field: numeric (nM). Do not append units.

Recorded results for 3 binders are shown here.
{"columns": ["binder", "measured.property", "observed.measurement"],
 "data": [
  ["A44-hv13 (antibody, V domains shown) VH: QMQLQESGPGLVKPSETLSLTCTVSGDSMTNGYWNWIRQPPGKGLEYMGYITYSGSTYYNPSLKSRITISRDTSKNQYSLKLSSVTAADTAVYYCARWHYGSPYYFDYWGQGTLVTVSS VL: DIKMTQSPSSLSASVGDRVTITCKASQDINSYLSWLQQKPGKSPKTLIYRAQRSVEGVPSRFSGSGSGQDYSLTISSLQPEDLGIYYCLQYDEFPPTFGGGTKLEIK", "Cyno PAI-1 neutralization IC50", 0.0281],
  ["A44-hv12 (antibody, V domains shown) VH: QMTLKESGPTLVKPTQTLSLTCSVSGDSMTNGYWNWIRQFPGKALEYMGYITYSGSTYYNPSLKGRITITRDTSKNQYYLTLSSVTTVDTATYYCARWHYGSPYYFDYWGQGTTLTVSS VL: DIKMTQSPSSLSASVGDRVTITCKASQDINSYLSWLQQKPGKSPKTLIYRAQRSVEGVPSRFSGSGSGQDYSLTISSLQPEDLATYYCLQYDEFPPTFGGGTKLEIK", "Cyno PAI-1 neutralization IC50", 0.0266],
  ["A44-hv11 (antibody, V domains shown, constant regions only as pictures; also called A44V11; A44v11) VH: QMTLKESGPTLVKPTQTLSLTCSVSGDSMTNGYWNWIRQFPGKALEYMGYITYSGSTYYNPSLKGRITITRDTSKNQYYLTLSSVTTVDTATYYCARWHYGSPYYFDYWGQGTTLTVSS VL: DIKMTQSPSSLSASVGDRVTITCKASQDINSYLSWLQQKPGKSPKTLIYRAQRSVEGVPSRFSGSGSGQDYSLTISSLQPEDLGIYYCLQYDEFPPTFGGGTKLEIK", "Cyno PAI-1 neutralization IC50", 0.0424]
]}

Please turn your attention to the following entry.
IN: Find the recorded Cyno PAI-1 neutralization IC50 belonging to A44-hv14 (antibody, V domains shown) VH: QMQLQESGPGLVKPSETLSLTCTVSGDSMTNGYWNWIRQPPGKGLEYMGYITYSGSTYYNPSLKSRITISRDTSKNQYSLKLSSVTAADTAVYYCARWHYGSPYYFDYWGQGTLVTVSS VL: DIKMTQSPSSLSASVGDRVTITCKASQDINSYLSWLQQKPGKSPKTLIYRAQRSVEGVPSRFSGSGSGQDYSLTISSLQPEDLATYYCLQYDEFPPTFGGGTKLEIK and report it.
OUT: 0.0287
